Sourced from patent US7855232B2

Test system: Glutathione S-Transferase
Run Description: Glutathione S-transferase (GST) activity in tissue cytosol of treated mice, CDNB substrate
Type: in vivo, Female A/J mice
Experimental Conditions: colon; dose 0.02 mmol/Kg body weight, gavage in corn oil
Marks after values point to notes of the source that are not given here.
Assay Readout: GST act.

| Compound | Assay Readout | Result |
| --- | --- | --- |
| N#C[Se]Cc1ccc(C[Se]C#N)[se]1 [(4) SDMSC] | GST act. | 0.45 ± 0.02 ^g μmol/min mg protein |
| [Se]=C=NCc1ccc(CN=C=[Se])s1 [(6) TDMISC] | GST act. | 0.73 ± 0.026 ^g μmol/min mg protein |
| [Se]=C=NCc1ccc(CN=C=[Se])[se]1 [(7) SDMISC] | GST act. | 0.80 ± 0.03 ^c μmol/min mg protein |

* * *

System: Glutathione S-Transferase
Run Description: Glutathione S-transferase (GST) activity in tissue cytosol of treated mice, CDNB substrate
Format: in vivo, Female A/J mice
Experimental Conditions: liver; dose 0.02 mmol/Kg body weight, gavage in corn oil
Marks after values point to notes of the source that are not given here.
Let's look at some molecules and their measured GST act..
Assay Readout: GST act.

| Molecule | Target Entity | Assay Readout | Result |
| --- | --- | --- | --- |
| N#C[Se]Cc1ccc(C[Se]C#N)s1 [(2) TDMSC, thienyl-2,5-di-methylene selenocyanate] | Glutathione S-Transferase | GST act. | 1.43 ± 0.2 ^g μmol/min mg protein |
| [Se]=C=NCc1ccc(CN=C=[Se])s1 | Glutathione S-Transferase | GST act. | 2.43 ± 0.46 ^e μmol/min mg protein |
| [Se]=C=NCc1ccc(CN=C=[Se])[se]1 | Glutathione S-Transferase | GST act. | 3.06 ± 0.41 ^e μmol/min mg protein |
